Molecular target: Peptide 5: Biotin-…-[Tyr(PC)]-acid
Sequence (peptide, as listed by the source): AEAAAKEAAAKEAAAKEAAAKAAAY
Assay: scFv ELISA
readout: OD450 (OD450)
Give the value in OD450 but do not write OD450 after it.

Below are worked cases with known answers.
INSERT INTO measurements (binder, unit_abbrev, test_value) VALUES
  ('PcOxP_DB04_G03 (scFv, V domains shown, scFv in periplasmic extract) VH: EVQLLESGGGLVQPGGSLRLSCAASGFTTSDFYMEWVRQAPGKGLEWVAASRNKANDYTTEYADSVKGRFTISRDNSKNTLYLQMNSLRAEDTAVYYCARDYYGSSYWYFDYWGQGTLVTVSS VL: DIVMTQSPDSLAVSLGERATINCTASESLYSSKHKVHYLAWYQQKPGQPPKLLIYGASNRNIGVPDRFSGSGSGTDFTLTISSLQAEDVAVYYCAHFYSYPLTFGGGTKVEIK', 'OD450', 0.4),
  ('PcOxP_DB01_A03 (scFv, V domains shown, scFv in periplasmic extract) VH: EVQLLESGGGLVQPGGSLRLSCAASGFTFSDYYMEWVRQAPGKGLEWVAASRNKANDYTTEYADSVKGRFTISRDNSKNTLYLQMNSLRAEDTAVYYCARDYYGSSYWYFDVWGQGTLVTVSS VL: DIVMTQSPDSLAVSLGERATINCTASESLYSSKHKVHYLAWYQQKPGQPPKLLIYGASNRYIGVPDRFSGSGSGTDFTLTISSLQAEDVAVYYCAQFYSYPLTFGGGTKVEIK', 'OD450', 1.38);

INPUT: Need OD450, item PcOxP_DB01_G10 (scFv, V domains shown, scFv in periplasmic extract) VH: EVQLLESGGGLVQPGGSLRLSCAASGFTFSDFYMEWVRQAPGKGLEWVAASRNKNNDYTTEYADSVKGRFTISRDNSKNTLYLQMNSLRAEDTAVYYCARDYYGSSYWYFDVWGQGTLVTVSS VL: DIVMTQSPDSLAVSLGERATINCKASQSLYSSKHKKHYLAWYQQKPGQPPKLLIYGASNRYPGVPDRFSGSGSGTDFTLTISSLQAEDVAVYYCAQFYRYPLTFGGGTKVEIK
OUTPUT: 1.52
